- Test system: Hyal1
- PROTOCOL DESCRIPTION: qPCR relative expression of Hyal1 in NIH3T3 cells
- Format: cell-based, mouse
- PROTOCOL CONDITIONS: Mus musculus, NIH3T3, read-out: Upregulated Hyal1 expression with IC50
pIC50: −log10 of the molar value.
MEASUREMENT TYPE: pIC50

Need pIC50, item Cc1cc(=O)oc2cc(O)ccc12 [Compound 4MU, 7-hydroxy-4-methylchromen-2-one]
~3.60

====

- Test system: NIH3T3 cells
- PROTOCOL DESCRIPTION: MTT cell viability assay
- Assay type: cell-based, mouse
- PROTOCOL CONDITIONS: proliferating NIH3T3 cells, 3 days incubation
I'd be grateful if you could share measured Not toxic in concentrations up to (MTT) for these entries.

Returns the measured Not toxic in concentrations up to (MTT) for the input compound. Input: Cc1cc(=O)oc2c(C)c3c(cc12)C(=O)CC1(CCCCC1)O3
> 0.5 mM

Recorded Not toxic in concentrations up to (MTT) of O=C(NC(=O)c1ccccc1Cl)Nc1ccc(OC(F)(F)F)cc1 , please.
> 1 mM

Record request: Not toxic in concentrations up to (MTT) value, item Cc1c2c(cc3c(-c4ccccc4)cc(=O)oc13)C(=O)CC1(CCCCC1)O2
> 0.5 mM

Requested field: Not toxic in concentrations up to (MTT). Item: CCOc1cc(C(C)(C)C)ccc1C1COC(c2c(F)cccc2F)=N1 (centres unmarked)
> 1 mM

Data request, read-out Not toxic in concentrations up to (MTT), for CC(C)N1C(=O)N(c2ccccc2)CSC1=NC(C)(C)C
> 1 mM
